The measured values listed here are drawn from PubChem BioAssay (NCI).

Tested on: HCC-2998 colon
Assay: NCI-60 one-dose screen, 48 h (100 = growth as untreated, 0 = no growth, -100 = all killed)
Conditions: 10 µM unless noted
About 83,000 compounds went through this panel and 20% of them were active in at least one assay; those are over-represented in the sample as a whole.
metric-name: growth (%)

| molecule | measured-result |
| --- | --- |
| Cc1cc(C)c(CBr)c(C)c1 | 114 |
| COc1cc2ncnc(Nc3ccc(F)c(Cl)c3)c2cc1OCC(=O)N1CCN(C)CC1 | 102 |
| Cc1ccc(C(Cc2ccccc2)NCCO)cc1 (stereo not drawn) | 99.9 |
| CC[C@H](C)[C@H](NC(=O)C12CC(NC(C)=O)(C1)C2)C(=O)N(C)[C@H](C[C@@H](OC(C)=O)c1nc(C(=O)N[C@@H](Cc2ccccc2)C[C@H](C)C(=O)OC)cs1)C(C)C | 24.8 |
| O=C1C=C(N2C3C4CCC(C4)C32)C(=O)C=C1c1ccccc1 (stereo not drawn) | 115 |
| COC(=O)[C@@H](C)C[C@H](Cc1ccccc1)NC(=O)c1csc([C@@H](C[C@H](C(C)C)N(C)C(=O)C2(NC(=O)[C@H]3CCCCN3C)CC2)OC(C)=O)n1 | -2.95 |
| CN(C)C(=O)Oc1ccccc1 | 102 |
| CC[C@H](C)[C@@H]([C@@H](CC(=O)N1CCC[C@H]1[C@H](OC)[C@@H](C)C(=O)N[C@H](C)[C@@H](O)c1ccccc1)OC)N(C)C(=O)[C@@H](NC(=O)[C@@H](NC)C(C)C)C(C)C | 9.29 |
| C/C(=C\c1cc(C(F)(F)F)nn1CCNC(=O)OC(C)(C)C)[C@@H]1C[C@@H]2O[C@]2(C)CCC[C@H](C)[C@H](O)[C@@H](C)C(=O)C(C)(C)[C@@H](O)CC(=O)O1 | 57.3 |
| C1CCC2(CC1)OOCNCOO2 | 106 |
| C[N+](C)(C)Cc1cc(Cl)ccc1O | 104 |
| O=C(CC1(O)C(=O)N(Cc2ccccc2)c2ccc(Br)cc21)c1ccc(C(=O)NCC2CCC3(CC2)OOC2(CCCCC2)OO3)cc1 (stereo not drawn) | 102 |
| CC(C)[C@]12O[C@H]1[C@@H]1O[C@]13[C@]1(O[C@H]1C[C@H]1c4c(C(=O)c5ccccc5)oc(OC(=O)c5ccccc5)c4CC[C@@]13C)[C@@H]2O | -15.3 |
| COc1cc2c(cc1OCCCCCn1c(-c3ccco3)nc3ccccc31)N=C[C@@H]1CCCN1C2=O | -22.3 |
| NC(=O)C(Br)c1ccccc1 (stereo not drawn) | 96.4 |
| Nc1c(F)cc(-c2nc3cc(F)ccc3[se]2)cc1Br | -35.1 |
| C/C(Cc1ccc(Cl)cc1)=C(\c1ccc(OCCN2CCOCC2)cc1)c1ccc(OC(=O)Cc2ccccc2)cc1 | 91.3 |
| CC(C)=CCc1c(O)c(C(=O)CC(C)C)c(O)c2c(-c3ccccc3)cc(=O)oc12 | 42.4 |

* * *

System: TK-10 renal
Assay: NCI-60 one-dose screen, 48 h (100 = growth as untreated, 0 = no growth, -100 = all killed)
Details: 10 µM unless noted
The panel holds about 83,000 compounds, 20% with a hit somewhere; the sample as a whole holds those more often.

| compound | growth (%) |
| --- | --- |
| O=C(O)C(Cl)(Cl)C(F)(F)F | 98.3 |
| Cn1cc(C2=C(c3cn(C4CCN(Cc5ccccn5)CC4)c4ccccc34)C(=O)NC2=O)c2ccccc21 | 56.3 |
| O=[N+]([O-])/C=C\c1ccc(Cl)c(Cl)c1 | 82.7 |
| CC(=O)O[C@@H]1CC[C@]2(C)[C@H]3CC[C@]4(C)C(=O)CC[C@H]4[C@@H]3C[C@@H]3SC(N)=N[C@@]32C1 | 91.1 |
| Cc1ccc(C(=O)NCCCOc2ccc(N)cc2Cl)cc1S(=O)(=O)F | 97.1 |
| CNC(=O)Oc1ccc(C(C)(C)C)cc1OC(=O)NC | 98.2 |
| CC12CC=CCC1CCC1C2CCC2(C)C(c3ccc(=O)oc3)CCC12O (stereo not given) | -62.2 |
| COC(=O)[C@@H](C)C[C@H](Cc1ccc2ccccc2c1)NC(=O)c1csc([C@@H](C[C@H](C(C)C)N(C)C(=O)[C@@H](NC(=O)[C@H]2CCCCN2C)C(C)C)OC(C)=O)n1 | 28 |
| O=C(CN1CCN(C(=O)c2ccco2)CC1)Nc1ccc(Cl)cc1C(=O)c1ccccc1Cl | 132 |
| O=C(CCCCCNC1=CC(=O)c2ccccc2C1=O)NCCC[Te]c1ccccc1 | -14.8 |
